Where do these numbers come from? They come from paper PMC3648463.

- ASSAYED SYSTEM: S100A9 (Homo sapiens, UniProt P06702)
- Construct: recombinant human S100A9 (produced in E. coli)
- Sequence (P06702 whole entry): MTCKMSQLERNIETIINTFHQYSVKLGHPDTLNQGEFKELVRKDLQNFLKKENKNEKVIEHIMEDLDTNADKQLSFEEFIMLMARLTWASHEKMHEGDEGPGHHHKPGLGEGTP
- TEST NAME: SPR direct binding to amine-coupled S100A9; SPR inhibition of S100A9 binding to immobilized RAGE (IC50 […]) and TLR4 ([…])
OBSERVED PROPERTY: IC50

Problem: Param item = O=C(Nc1cc(Cl)cc(Cl)c1O)c1c(O)c(Cl)cc(Cl)c1Cl [OX, Oxyclozanide] ; retrieve measured IC50.
Result: ~1300 nM
